target: human FOXP3 tagged with 6 histidines at the C terminus (human) (UniProt Q9BZS1); test: SPR (ProteOn XPR36), FOXP3-6His immobilized on GLM chip, peptide 1-20 µM injected; ratio to p60 (SEQ ID NO: 1)
Sequence (Q9BZS1 other isoform, or with tags, fused parts or gaps): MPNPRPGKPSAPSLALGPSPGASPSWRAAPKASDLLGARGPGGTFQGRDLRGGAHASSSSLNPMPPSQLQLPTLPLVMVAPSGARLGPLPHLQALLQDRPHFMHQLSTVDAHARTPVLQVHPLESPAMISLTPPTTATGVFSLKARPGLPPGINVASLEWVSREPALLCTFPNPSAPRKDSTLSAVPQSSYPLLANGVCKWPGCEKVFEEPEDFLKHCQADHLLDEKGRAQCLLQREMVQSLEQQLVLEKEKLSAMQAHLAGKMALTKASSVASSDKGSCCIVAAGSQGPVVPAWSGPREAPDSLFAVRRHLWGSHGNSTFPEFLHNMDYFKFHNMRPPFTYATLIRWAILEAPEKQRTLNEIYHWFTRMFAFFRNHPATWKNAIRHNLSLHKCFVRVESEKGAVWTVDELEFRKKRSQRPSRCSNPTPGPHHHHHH
Where no end group is shown, it is not given here. [ ]: non-standard residue; d: D form.
Catalogue of Ratio binding Peptide/p60 (fold change) readings, one per entry.
Just the number in fold change, nothing appended.

{"binder": "Ac-GR[dD]FQSFRKMWPFFAM-NH2 (SMILES CSCC[C@H](NC(=O)[C@H](C)NC(=O)[C@H](Cc1ccccc1)NC(=O)[C@H](Cc1ccccc1)NC(=O)[C@@H]1CCCN1C(=O)[C@H](Cc1c[nH]c2ccccc12)NC(=O)[C@H](CCSC)NC(=O)[C@H](CCCCN)NC(=O)[C@H](CCCNC(=N)N)NC(=O)[C@H](Cc1ccccc1)NC(=O)[C@H](CO)NC(=O)[C@H](CCC(N)=O)NC(=O)[C@H](Cc1ccccc1)NC(=O)[C@@H](CC(=O)O)NC(=O)[C@H](CCCNC(=N)N)NC(=O)CNC(C)=O)C(N)=O) [peptide of SEQ ID NO: 4]", "Ratio binding Peptide/p60 (fold change)": 4.2}
{"binder": "cyclo(R[dA]FQAFRKMWPFFAM) (SMILES CSCC[C@@H]1NC(=O)[C@H](C)NC(=O)[C@H](Cc2ccccc2)NC(=O)[C@H](Cc2ccccc2)NC(=O)[C@@H]2CCCN2C(=O)[C@H](Cc2c[nH]c3ccccc23)NC(=O)[C@H](CCSC)NC(=O)[C@H](CCCCN)NC(=O)[C@H](CCCNC(=N)N)NC(=O)[C@H](Cc2ccccc2)NC(=O)[C@H](C)NC(=O)[C@H](CCC(N)=O)NC(=O)[C@H](Cc2ccccc2)NC(=O)[C@@H](C)NC(=O)[C@H](CCCNC(=N)N)NC1=O) [peptide of SEQ ID NO: 53]", "Ratio binding Peptide/p60 (fold change)": 2.2}
{"binder": "Ac-GRDFQSFRKMWAFFA[dM]-NH2 (SMILES CSCC[C@H](NC(=O)[C@H](CCCCN)NC(=O)[C@H](CCCNC(=N)N)NC(=O)[C@H](Cc1ccccc1)NC(=O)[C@H](CO)NC(=O)[C@H](CCC(N)=O)NC(=O)[C@H](Cc1ccccc1)NC(=O)[C@H](CC(=O)O)NC(=O)[C@H](CCCNC(=N)N)NC(=O)CNC(C)=O)C(=O)N[C@@H](Cc1c[nH]c2ccccc12)C(=O)N[C@@H](C)C(=O)N[C@@H](Cc1ccccc1)C(=O)N[C@@H](Cc1ccccc1)C(=O)N[C@@H](C)C(=O)N[C@H](CCSC)C(N)=O) [peptide of SEQ ID NO: 38]", "Ratio binding Peptide/p60 (fold change)": 1.1}
{"binder": "RDFQKFRKMWPFFAM [peptide of SEQ ID NO: 25]", "Ratio binding Peptide/p60 (fold change)": 4}
{"binder": "RAFQSFRKMWPFFA[dM] [peptide of SEQ ID NO: 47]", "Ratio binding Peptide/p60 (fold change)": 1.7}
{"binder": "Ac-GRAFQAFRKMWPFFAM-NH2 [peptide of SEQ ID NO: 41]", "Ratio binding Peptide/p60 (fold change)": 3.7}

// next item, Ratio binding Peptide/p60 (fold change) requested
If you can, please state the reported Ratio binding Peptide/p60 (fold change) value of RWFQSFRKMWPFFAM [peptide of SEQ ID NO: 9] . 1.4
